All values here come from patent US20240374558A1.

Target: NET (Rattus norvegicus, UniProt Q63380)
Sequence (Q63380 1-617): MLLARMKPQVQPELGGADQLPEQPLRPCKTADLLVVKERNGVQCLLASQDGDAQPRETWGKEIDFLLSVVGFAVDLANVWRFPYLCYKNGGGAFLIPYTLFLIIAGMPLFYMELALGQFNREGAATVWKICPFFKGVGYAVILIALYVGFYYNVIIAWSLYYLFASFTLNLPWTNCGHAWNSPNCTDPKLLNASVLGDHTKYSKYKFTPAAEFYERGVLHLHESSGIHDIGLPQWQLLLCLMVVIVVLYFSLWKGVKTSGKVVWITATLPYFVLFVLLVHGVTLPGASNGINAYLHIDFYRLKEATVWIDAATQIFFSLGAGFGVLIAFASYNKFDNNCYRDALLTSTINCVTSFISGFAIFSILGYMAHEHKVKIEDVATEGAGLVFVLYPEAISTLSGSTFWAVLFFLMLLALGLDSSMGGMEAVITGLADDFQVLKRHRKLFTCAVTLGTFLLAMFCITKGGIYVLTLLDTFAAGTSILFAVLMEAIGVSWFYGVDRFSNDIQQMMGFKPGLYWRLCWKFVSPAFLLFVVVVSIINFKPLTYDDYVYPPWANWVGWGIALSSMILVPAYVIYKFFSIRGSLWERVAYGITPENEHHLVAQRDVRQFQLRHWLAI
Assay: NE release study
pEC50: −log10 of the molar value.

>  <compound>
CNC(C)C(=O)c1ccc2c(c1)OCO2 (racemic) [Racemic methylone, methylone]

>  <measuredOn>
NET (Rattus norvegicus, UniProt Q63380)

>  <pEC50>
6.48

$$$$

---

Biological target: UniProt Q63380
resultType: IC50 (µM)

>  <molecule>
CNC(C)C(=O)c1ccc2c(c1)OCO2 (racemic) [Racemic methylone, methylone]

>  <resultUnits>
µM

>  <reportedResult>
3.1

$$$$

---

Target: norepinephrine transporter (NET) (Rattus norvegicus)
Sequence (Q63380 1-617): as above
pKi: −log10 of the molar value.
resultType: pKi

>  <molecule>
CNC(C)C(=O)c1ccc2c(c1)OCO2 (racemic) [Racemic methylone, methylone]

>  <measuredOn>
norepinephrine transporter (NET) (Rattus norvegicus)

>  <reportedResult>
5.84

$$$$
